Cited source: patent US20260098102A1

# systemUnderTest: T1, SIRPA_V1_IgV (human, UniProt P78324 31-149)
# T1 construct: Secreted recombinant protein from FreeStyle 293F cells
# T1 sequence (P78324 other isoform, or with tags, fused parts or gaps limits assumed): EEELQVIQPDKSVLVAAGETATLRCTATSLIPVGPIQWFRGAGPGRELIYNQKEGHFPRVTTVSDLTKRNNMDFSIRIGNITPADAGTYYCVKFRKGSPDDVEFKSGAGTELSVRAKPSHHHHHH
# experiment: SPR Biacore T200, antibody captured on anti-human IgG (Fc), SIRPA_V1_IgV as analyte, 1:1 model
measuredAttribute: pKd
One number for each entry, as −log10 of the molar value.

Task: What value of pKd has been recorded for this entry: humanized anti-SIRPA antibody hD13_H1L4 (antibody, human IgG4 S228P, kappa, F234A L235A, V domains shown, hH1 heavy chain (IgG4proFALA) and hL4 kappa light chain; also called hD13_HIL4; hD13_HIL4h) VH: QVQLVESGGGVVQPGRSLRLSCAASGFTFSDYGMIWVRQAPGKGLEWVASISSSSSYIYYADSVKGRFTISRDNSKNRLYLQMNSLRAEDTAVYYCARRYYGFNYPFDYWGQGTMVTVSS VL: DTVLTQSPDSLAVSLGQRATINCGASKSVRTYMHWYQQKPGQQPKLLIYSASNLEAGVPSRFSGSGSGTDFTLTISSLQAEDVAVYYCQQSNEPPYTFGQGTKVEIKR
Result: 9.97
